Molecular target: Escherichia coli SC (^EcSC) (Escherichia coli)
Construct: His tag (inferred from the pET15b vector and Ni-NTA purification) (N); made in house; host or cells: E. coli
Sequence (P0A988 whole entry): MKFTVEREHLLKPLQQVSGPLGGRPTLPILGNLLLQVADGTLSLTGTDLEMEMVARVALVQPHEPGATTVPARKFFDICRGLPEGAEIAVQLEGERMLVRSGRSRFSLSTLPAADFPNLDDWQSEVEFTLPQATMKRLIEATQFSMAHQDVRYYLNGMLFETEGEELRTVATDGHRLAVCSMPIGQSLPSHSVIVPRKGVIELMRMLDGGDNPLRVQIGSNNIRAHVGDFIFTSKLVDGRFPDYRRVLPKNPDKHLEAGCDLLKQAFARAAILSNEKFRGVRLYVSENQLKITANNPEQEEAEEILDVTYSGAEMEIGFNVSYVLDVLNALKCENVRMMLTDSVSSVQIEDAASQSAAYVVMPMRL
Test: biochemical
Type: binding
Conditions: Kd (nM), ITC at 298.15 K (25° C.)
Numbered stars: 1 amine (or outer) side, 2 acyl side, 3 side chain; on linkers, the order of the positions; unused ones are H or OH. Square brackets hold non-standard residues; d marks the D form. Peptide text beside a SMILES is read from it. ACHC(1S,2S) = O=C([C@H]1CCCC[C@@H]1N[*:1])[*:2]; Phe(3,4-Cl2) = N[C@@H](Cc1ccc(Cl)c(Cl)c1)C(=O)O; NMeR = CN[C@@H](CCCNC(=N)N)C(=O)O; X2 = O=C(CN(Cc1ccccn1)[*:1])[*:2]; Cha = N[C@@H](CC1CCCCC1)C(=O)O; NMeD = CN[C@@H](CC(=O)O)C(=O)O

Compound | Kd
CC(C)C[C@H](NC(=O)[C@H](CC(=O)O)NC(=O)[C@H](CC1CCCCC1)NC(=O)[C@H](CCC(N)=O)NC(=O)CNCc1ccccn1)C(=O)N[C@@H](Cc1ccccc1)C(=O)O [P8] (H-[X2]Q[Cha]DLF-OH) | 172 nM
CC(=O)N(C)[C@@H](CCCNC(=N)N)C(=O)N[C@@H](CCC(N)=O)C(=O)N[C@@H](CC1CCCCC1)C(=O)N(C)[C@@H](CC(=O)O)C(=O)N[C@@H](CC(C)C)C(=O)N[C@@H](Cc1ccc(Cl)c(Cl)c1)C(=O)O [P37] (Ac-[NMeR]Q[Cha][NMeD]L[Phe(3,4-Cl2)]-OH) | 92 nM
CC(=O)N[C@@H](CCC(N)=O)C(=O)N[C@@H](CC1CCCCC1)C(=O)N[C@H](C(=O)N[C@@H](CC(C)C)C(=O)N[C@@H](Cc1ccccc1)C(=O)O)[C@@H](C)O [Asp to Thr substitution] (Ac-Q[Cha]TLF-OH) | 180 nM
CC(=O)N[C@@H](CCC(N)=O)C(=O)N[C@@H](CC1CCCCC1)C(=O)N[C@@H](CC(=O)O)C(=O)N[C@@H](CC(C)C)C(=O)N[C@H]1CCCC[C@@H]1C(=O)N[C@@H](CC(C)C)C(=O)O [P31] (Ac-Q[Cha]DL[ACHC(1S,2S)]L-OH) | 4070 nM
